Test system: U-251
ASSAY_TEXT: NCI tumour cell line growth inhibition, 48 h
Calls of active or inactive are those of the source. No stated cut-off is given here; in the data, active = GI50 up to about 1.1 µM and inactive = higher.
Permitted responses: True = active, False = inactive

Tell me the recorded outcome of this test for CCC1(O)C(=O)OCc2c1cc1n(c2=O)Cc2cc3ccc(C=O)cc3nc2-1 (configuration not stated) .
True

Ok, now "CCCN1CCC(=O)N(CCC(F)(F)C(F)(F)C(F)(F)C(F)(F)C(F)(F)C(F)(F)F)C1=S"
False

Also check "COc1cc(/C=C/C(=O)O)ccc1OS(=O)(=O)O"
False

Another molecule: CC(C)[S+]1C2=C(CC(C)(C)CC2=O)[N-]c2ccccc21 (configuration not stated)
False

"c1ccc(CNc2c3c(nc4ccccc24)CCC3)cc1" , same question.
False

Same thing, different molecule: "O=C(c1ccccc1Cl)n1oc2ccccc2c1=O"
False

Try the molecule "O=c1c(/C=C/c2c(O)ccc3ccccc23)nnc2sc(-c3cccc([N+](=O)[O-])c3)nn12"
False

Now this one: "CN(C)C(=S)/N=c1\ssc(=S)n1Cc1ccncc1"
False

And for "O=C1Nc2cc([N+](=O)[O-])ccc2N/C1=C/C(=O)c1ccc(Cl)cc1" ?
False

What about this molecule? C/C(CCOC1CCCCO1)=C(\C)[Si](C)(C)C (configuration not stated)
False

And then "CC(=O)CCC(=O)C(=[N+]=[N-])S(=O)(=O)c1ccccc1" , what is it?
False
